Test system: MS2 coat protein
Assay: apparent KD of MS2 coat protein, switch ON state; designed switch direction (-1 OFF switch, 1 ON switch): 1; higher = weaker reporter binding
Conditions: FMN input: 0 or 200 uM; Eterna round: R93 (includes R88 designs)
Consider the following sequences; for each one, report its apparent KD of MS2 coat protein.
Response body: numeric value in nM, unit text excluded.

Reported apparent KD of MS2 coat protein for AAGAAACAUGAGGAUCACCCAUGUGAUAAUAUGGGAGGAUAUACAAAGACGAAAGACGAAGUAGAAGGCCUAUGAA [Garnet 44] : what is it?
49

Next record, please: GCAAAACAUGAGGAUCACCCAUGUGAAAAGAAUGUAGGAUAUGGGCUCAGAAAUAGCAGCCCAGAAGGGCGAAGAA [Xequamara]
21.9

Next record, please: AGGAGACAUGAGGAUCACCCAUGUGAGAAGAGGCGAGGAUAUCGAAAGAAAGAAGAGAAACGAGAAGGCGCGAGAG [salish99-SS1-025]
28.4

Next record, please: GAAAAACAUGAGGAUCACCCAUGUAGAAAUAUGGGAGGAUAUACAAAGUCGAAAGACAAAGUAGAAGGCCUAAAAG [Mat - Same State 1 - Eli mod - D2]
24.6

Next record, please: AGAAAUAAAAGACAGGAUAUCCUUAAGAAAACAUGAGGAUCACCCAUGUAAAAGAAAAUAAAAAGGGAGAAGGGUCAAAAUAAGA [Mat - Same State 2 - JL mod - D80]
18

Next record, please: AGGAAACAUGAGGAUCACCCAUGUAAAAAUAUGGGAGGAUAUUGAAAGACGAAAGUCAAACAAGAAGGCCUAAAAG [Garnet 21]
24

* * *

Tested on: MS2 coat protein
Assay: apparent KD of MS2 coat protein, switch ON state; designed switch direction (-1 OFF switch, 1 ON switch): -1; higher = weaker reporter binding
Details: FMN input: 0 or 200 uM; Eterna round: R93 (includes R88 designs)
propertyName: apparent KD of MS2 coat protein (nM)
Response body: numeric value in nM, unit text excluded.

Reported apparent KD of MS2 coat protein for AAAAAGGUAGGAUAUGCUAAAUAACAUGAAGAAUAAAUAAAACAUGAGGAUCACCCAUGUAGAAGGACCAAAAA [Ex 2 Tesla 1] : what is it?
25

Next record, please: AAGAACAAAGGAUAUACAAGGAAGAAAGAAAAGAAAAGAAAACAUGAGGAUCACCCAUGUAGAAGGUUGUAGAA [EteRNA is fun!]
24.7

Next record, please: ACCUGACAUGAGGAUCACCCAUGUCAGGAUAUGACUUCGAAAAUAAAAUAAAACGAUGUCAGAAGGGACAUGGG [Design 71: Sub-opt PB]
21.8

Next record, please: AAGAAGUGAGGAUAUCGAAGACUGUCGAAAAGACAGUCGAACGAGAAGGCACAUGAGGAUCACCCAUGUGAGGG [Marsurpial 65% 3]
130

Next record, please: AAGAACGGAGGAUAUACAUGAGGAUCACCCAUGUAAAAGAAAGAAAAGGGAAAGAAAAGUAGAAGGCCGAAGAA [Djeserkare Amenhotep I]
39.8

Next record, please: AAAAGUACAGGAUAUACAUGAGGAUCACCCAUGUAGAAAGGAAGUGUAAAAAAAAAGUGUAGAAGGGUGCAUGA [MS2 Riboswitches On Chip Exclusion 3 wbt1]
22.5
